Test system: 565726-208-R1-J5-PDC complex spheroids, growth inhibition;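 note: spheroids exposed to compounds for seven days before readout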
Test: Anticancer human tumor 565726-208-R1-J5-PDC patient-derived pancreatic adenocarcinoma cell line growth inhibition [RAS]
Settings: curve of first compound; second compound 0.000949 µM
Text: RAS pathway inhibitors in Combinations in Complex Spheroids A high-throughput screen of multi-cell type tumor spheroids was designed to identify active combinations of RAS pathway inhibitors and targeted small molecules. Complex spheroids include a stromal component modeled by human endothelial cells (HUVEC) and fibroblasts modeled by human mesenchymal stem cells (MSCs). […] Compounds. […] If the clinical Cmax for an agent had not been determined, the highest concentration tested was 10 microM. […]
pIC50: −log10 of the molar value.
Below, each of the compounds is paired with its reported pIC50 value.

Worked examples, 2 compounds total:
C=CC(=O)Nc1cc(Nc2nccc(-c3cn(C)c4ccccc34)n2)c(OC)cc1N(C)CCN(C)C + CCn1c(-c2cccnc2C(C)OC)c2c3cc(ccc31)N1CCOC(CC(NC(=O)C(C(C)C)N(C)C(=O)C3(F)CCN(C(=O)C#CC(C)(C)N(C)C)CC3)C(=O)N3CCCC(N3)C(=O)OCC(C)(C)C2)C1: < 6.00
Cc1nc(N2CCC3(CC2)COC(C)C3N)c(CO)nc1Sc1ccnc(N)c1Cl (stereo not drawn) + CCn1c(-c2cccnc2C(C)OC)c2c3cc(ccc31)N1CCOC(CC(NC(=O)C(C(C)C)N(C)C(=O)C3(F)CCN(C(=O)C#CC(C)(C)N(C)C)CC3)C(=O)N3CCCC(N3)C(=O)OCC(C)(C)C2)C1: < 5.00

# context switch: different compound, same pIC50
IN: Value lookup for pIC50; key = NC1c2ccccc2OC12CCN(c1cnc3c(N4CCCc5ncccc54)n[nH]c3n1)CC2 (stereo not drawn) + CCn1c(-c2cccnc2C(C)OC)c2c3cc(ccc31)N1CCOC(CC(NC(=O)C(C(C)C)N(C)C(=O)C3(F)CCN(C(=O)C#CC(C)(C)N(C)C)CC3)C(=O)N3CCCC(N3)C(=O)OCC(C)(C)C2)C1
OUT: < 5.00
